Reported melting point values follow for various molecules

molecule	melting point
COC(=O)c1cc(S(=O)(=O)Cl)c(Br)cc1F	105 to 107 °C
Cc1cnoc1C(=O)O	133 to 135 °C
Cc1nn(-c2ccccc2)c(C)c1N	61 to 63 °C
CC(=O)NC(C)c1ccc(C(=O)CCl)cc1 (stereo not given)	152 to 156 °C
O=C(CCl)N1CCCc2cc(S(=O)(=O)N3CCCC3)ccc21	146 to 148 °C

====

Reported melting point values follow for various compounds
measured-endpoint: melting point

compound	measured-endpoint	measured-value
CC(C)(C)c1cc(N)n(-c2cccc(Cl)c2)n1	melting point	99 to 101 °C
CC(C)c1ccc(C(=O)CC#N)cc1	melting point	91 to 93 °C
NNC(=O)c1cccc2ncccc12	melting point	130 to 132 °C
CCOc1cc(C#N)ccc1O	melting point	75 to 77 °C
CNS(=O)(=O)c1cc(Br)ccc1C	melting point	105 to 107 °C
NC(=S)c1cccc(C(=O)O)c1	melting point	240 to 242 °C
CC(C)C(C(=O)O)N1CCCS1(=O)=O (stereo not given)	melting point	97 to 99 °C
COC(=O)c1sc2ncc(C=O)cc2c1C	melting point	199 to 201 °C
CC(Cl)C(=O)Nc1ccc(NC(=O)c2cccs2)cc1 (stereo not given)	melting point	227 to 229 °C
O=C(O)c1[nH]nc(-c2ccccc2)c1Br	melting point	260 to 262 °C
O=C(O)c1cc(Cl)cc(Cl)c1OC(F)F	melting point	128 to 132 °C
NC(=S)Nc1ccc(Cl)nc1	melting point	182 to 184 °C
COC(=O)c1cnc(Cl)c(S(=O)(=O)N2CCOCC2)c1	melting point	132 to 134 °C
O=C(O)c1nc(OCC2CC2)c2ccccc2n1	melting point	109 to 111 °C
N#Cc1ccc(Oc2cccc(Cl)c2Cl)nc1	melting point	143 to 145 °C

From: a melting point compilation (Tetko et al.)
